tested on: L1210 leukemia ip in BDF1 mice, survival T/C; test: NCI In Vivo Anticancer Drug Screen. Data for tumor model L1210 Leukemia (intraperitoneal) in B6D2F1 (BDF1) mice; conditions: endpoint: mean survival time; dose: 50.0 mg/kg/injection; schedule: Q04DX003 (ip); vehicle: Klucel (hydroxypropylcellulose) (HPC); higher = longer survival
Inconclusive results and toxic doses are left out.
Below, each entry is listed alongside its reported T/C.

{"COMPOUND": "O=Cc1cc(Br)c(O)c(Br)c1", "T/C": "100 % of control"}
{"COMPOUND": "c1ccc(COCCNCCOCc2ccccc2)cc1", "T/C": "95 % of control"}
{"COMPOUND": "CCN(CC)Cc1cc(Nc2nc(/C=C/c3ccc(Cl)cc3)nc(Cl)c2-c2ccc(Cl)cc2)ccc1O", "T/C": "97 % of control"}
{"COMPOUND": "CCOC(=O)Oc1c(OC)cc(C(=O)O[C@@H]2C[C@@H]3CN4CCc5c([nH]c6cc(OC)ccc56)[C@H]4C[C@@H]3[C@H](C(=O)OC)[C@H]2OC)cc1OC", "T/C": "106 % of control"}
{"COMPOUND": "O=C1CN=C(c2ccccc2Cl)c2cc(Cl)ccc2N1", "T/C": "105 % of control"}
{"COMPOUND": "NC(N)=Nc1ccc(C(=O)Oc2ccc([N+](=O)[O-])cc2[N+](=O)[O-])cc1", "T/C": "98 % of control"}
{"COMPOUND": "CC/C(=C/c1ccc(OC)c(OC)c1)[N+](=O)[O-]", "T/C": "96 % of control"}
{"COMPOUND": "C1=NCCc2cc3[nH]c4ccccc4c3cc21", "T/C": "98 % of control"}
{"COMPOUND": "O=CNc1ccc(Br)cc1", "T/C": "97 % of control"}
{"COMPOUND": "COc1cccc(OC#N)c1OC", "T/C": "94 % of control"}
{"COMPOUND": "CS(=O)(=O)OC1CCCCCCC1OS(C)(=O)=O (stereo not drawn)", "T/C": "103 % of control"}
{"COMPOUND": "O=C(c1ccccc1)C1CSSC1c1ccccc1 (stereo not drawn)", "T/C": "97 % of control"}
{"COMPOUND": "COc1cc(N(CCO)CCO)ccc1NC(=O)c1ccccc1", "T/C": "97 % of control"}

###

test system: L1210 leukemia ip in BDF1 mice, survival T/C; experiment: NCI In Vivo Anticancer Drug Screen. Data for tumor model L1210 Leukemia (intraperitoneal) in B6D2F1 (BDF1) mice; details: endpoint: mean survival time; dose: 50.0 mg/kg/injection; schedule: Q04DX003 (ip); vehicle: saline with Tween-80; higher = longer survival
Inconclusive results and toxic doses are left out.
ASSAY READOUT: T/C

{"COMPOUND": "C[n+]1cccc(C(=O)N/N=C/CCc2ccccc2)c1", "OBSERVED": "90 % of control"}
{"COMPOUND": "CCOC(=O)c1c(NC(=O)CCC(=O)Nc2sc(C)c(C)c2C(=O)OCC)sc(C)c1C", "OBSERVED": "88 % of control"}
{"COMPOUND": "CCCC[As](=O)(O)CCO", "OBSERVED": "94 % of control"}
{"COMPOUND": "CC(=O)CC(Br)CBr (configuration not stated)", "OBSERVED": "98 % of control"}
{"COMPOUND": "N#CC(C#N)=C1Cc2ccccc2C1", "OBSERVED": "109 % of control"}
{"COMPOUND": "COc1cc(Cc2cnc(NC(C)=O)nc2NC(C)=O)cc(OC)c1OC", "OBSERVED": "95 % of control"}
{"COMPOUND": "O=C(C(Br)c1ccccc1)C(Br)c1ccccc1 (configuration not stated)", "OBSERVED": "101 % of control"}
